- TARGET_UNDER_TEST: JAK2 (Homo sapiens (Human))
- Sequence (O60674 whole entry): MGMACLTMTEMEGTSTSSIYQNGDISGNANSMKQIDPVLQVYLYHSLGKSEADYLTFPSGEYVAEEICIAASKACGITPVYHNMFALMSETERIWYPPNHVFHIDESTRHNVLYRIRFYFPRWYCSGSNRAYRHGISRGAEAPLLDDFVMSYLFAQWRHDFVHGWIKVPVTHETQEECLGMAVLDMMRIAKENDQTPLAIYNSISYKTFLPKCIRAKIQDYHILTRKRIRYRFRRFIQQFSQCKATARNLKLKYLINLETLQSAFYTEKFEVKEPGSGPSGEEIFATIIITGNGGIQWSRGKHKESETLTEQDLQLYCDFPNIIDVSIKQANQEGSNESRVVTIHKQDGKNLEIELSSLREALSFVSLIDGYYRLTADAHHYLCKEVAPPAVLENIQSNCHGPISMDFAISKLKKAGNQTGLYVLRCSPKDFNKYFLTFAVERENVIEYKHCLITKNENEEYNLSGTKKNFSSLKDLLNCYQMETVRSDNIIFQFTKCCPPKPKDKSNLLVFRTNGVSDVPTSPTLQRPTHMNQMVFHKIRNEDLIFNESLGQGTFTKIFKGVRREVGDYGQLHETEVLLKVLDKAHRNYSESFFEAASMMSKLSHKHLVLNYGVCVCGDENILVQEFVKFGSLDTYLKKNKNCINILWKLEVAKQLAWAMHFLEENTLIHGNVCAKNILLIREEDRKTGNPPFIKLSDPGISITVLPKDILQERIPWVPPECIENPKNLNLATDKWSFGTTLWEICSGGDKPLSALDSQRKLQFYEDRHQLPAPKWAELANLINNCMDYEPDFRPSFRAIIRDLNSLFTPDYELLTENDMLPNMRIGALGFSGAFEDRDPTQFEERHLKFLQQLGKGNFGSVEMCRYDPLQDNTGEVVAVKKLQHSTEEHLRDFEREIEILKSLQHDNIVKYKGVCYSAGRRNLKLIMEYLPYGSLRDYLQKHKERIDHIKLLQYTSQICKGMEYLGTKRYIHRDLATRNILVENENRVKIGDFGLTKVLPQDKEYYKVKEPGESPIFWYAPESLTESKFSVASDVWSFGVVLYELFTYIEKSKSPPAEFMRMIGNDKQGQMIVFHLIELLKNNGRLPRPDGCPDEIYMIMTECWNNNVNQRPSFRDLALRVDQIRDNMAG
- METHOD_NOTES: JAK2 activity inhibition assay (radioactive kinase / Caliper assay)
- Format: biochemical
pKi: −log10 of the molar value.
PROPERTY_MEASURED: pKi

May I ask what pKi has been recorded for O=C1NCc2nc(-c3c(F)cccc3F)cc(Nc3ccc(C(=O)N4C[C@H]5COC[C@H]5C4)cc3)c21 [Compound I-63] ?
7.00 to 8.00

Also check CC(O)(c1ccc(Nc2cc(-c3c(F)cccc3F)nc3c2C(=O)NC3)nc1)C(F)(F)F (stereo not drawn) [Compound I-78]
7.00 to 8.00

Try O=C1NCc2nc(-c3c(F)cccc3F)cc(Nc3ccc(N4CCC5(CC4)COC5)cn3)c21 [Compound I-24] next.
≥ 8.00

One more molecule: O=C1NCc2nc(-c3c(F)cccc3F)cc(Nc3cc4c(cn3)CCN4)c21 [Compound I-17]
7.00 to 8.00

Subsequent entry: O=C1NCc2nc(-c3c(F)cccc3F)nc(Nc3ccc(C(=O)N4CC5CCC(C4)O5)cc3)c21 [Compound I-5]
6.00 to 7.00

Next molecule up: N#Cc1cccc(F)c1-c1cc(Nc2ccc(N3CCOC4(CC4)C3)nc2)c2c(n1)CNC2=O [Compound I-79]
7.00 to 8.00

----------
pKi: −log10 of the molar value. Where a name gives a salt, the structure may show the parent alone.
Recorded below: pKi, system TYK2 (Homo sapiens (Human), UniProt P29597).

[
  {
    "COMPOUND": "C[C@](O)(C(=O)O)c1ccc(Nc2nc(-c3c(F)cccc3F)nc3c2C(=O)NC3)cc1",
    "PROPERTY_MEASURED": "pKi",
    "READING": "≥ 8.00"
  },
  {
    "COMPOUND": "O=C1NCc2nc(-c3c(F)cccc3F)cc(Nc3ccc(N4C[C@H]5CC[C@@H](C4)O5)cn3)c21",
    "PROPERTY_MEASURED": "pKi",
    "READING": "≥ 8.00"
  },
  {
    "COMPOUND": "N#Cc1cccc(F)c1-c1cc(Nc2ccc(N3CC[C@@]4(C[C@@H](O)CO4)C3)cn2)c2c(n1)CNC2=O",
    "PROPERTY_MEASURED": "pKi",
    "READING": "≥ 8.00"
  },
  {
    "COMPOUND": "O=C1NCc2nc(-c3c(F)cccc3F)cc(Nc3ccc4c(c3)OCO4)c21",
    "PROPERTY_MEASURED": "pKi",
    "READING": "7.00 to 8.00"
  },
  {
    "COMPOUND": "O=C1NCc2nc(-c3c(F)cccc3F)cc(Nc3ccc4c(c3)COB4O)c21",
    "PROPERTY_MEASURED": "pKi",
    "READING": "7.00 to 8.00"
  }
]

Give its pKi value. Item: O=C1NCc2nc(-c3c(F)cccc3F)cc(Nc3ccc(C(=O)N4CCOCC45CC5)cc3)c21
≥ 8.00

And the next one, O=C1NCc2nc(-c3c(F)cccc3F)cc(Nc3ccc(C(=O)N4CCC5(CC4)CC5)cc3)c21 ?
≥ 8.00

And what about the compound O=C1NCc2nc(-c3c(F)cccc3F)nc(Nc3ccc(OC(CO)CO)cc3)c21 ?
≥ 8.00

Now the same for CCNC(=O)C(C)(O)c1ccc(Nc2nc(-c3c(F)cccc3F)nc3c2C(=O)NC3)cc1 (centres unmarked)
≥ 8.00

Now the compound CC1(C)COc2cc(Nc3cc(-c4c(F)cccc4C#N)nc4c3C(=O)NC4)ccc21
≥ 8.00

Also check CCNC(=O)C(C)(N)c1ccc(Nc2nc(-c3c(F)cccc3F)nc3c2C(=O)NC3)cc1 (centres unmarked)
7.00 to 8.00

Next up: O=C1NCc2nc(-c3c(F)cccc3F)cc(Nc3ccc(N4CCC5(CC4)COC5)cn3)c21
≥ 8.00

Try this compound too: C[C@@](N)(C(=O)O)c1ccc(Nc2nc(-c3c(F)cccc3F)nc3c2C(=O)NC3)cc1 [Compound I-45, hydrochloride]
≥ 8.00

Thanks! And N#Cc1cccc(F)c1-c1cc(Nc2ccc(N3CC[C@]4(C[C@@H](O)CO4)C3)cn2)c2c(n1)CNC2=O ?
≥ 8.00

What would you report for CN1C(=O)C(C)(c2ccc(Nc3nc(-c4c(F)cccc4F)nc4c3C(=O)NC4)cc2)Oc2ccccc21 (centres unmarked) ?
≥ 8.00

Then this compound: O=C1NCc2nc(-c3c(F)cccc3F)cc(Nc3ccc(N4CCC5(CCO5)CC4)cn3)c21
≥ 8.00

Another compound to check: O=C1NCc2nc(-c3c(F)cccc3F)cc(Nc3ccc(N4CCC5(CCCCO5)CC4)cn3)c21
≥ 8.00

And for CCNC(=O)C(O)(CC(F)(F)F)c1ccc(Nc2nc(-c3c(F)cccc3F)nc3c2C(=O)NC3)cc1 (centres unmarked) ?
≥ 8.00

Try this compound next: CCNC(=O)[C@@](C)(O)c1ccc(Nc2nc(-c3c(F)cccc3F)nc3c2C(=O)NC3)cc1
≥ 8.00

Now consider CC(O)(c1ccc(Nc2cc(-c3c(F)cccc3F)nc3c2C(=O)NC3)cc1)C(F)(F)F (centres unmarked) and answer again.
≥ 8.00
